Cited source for all entries: ChEMBL document CHEMBL6120978

Measured Activity accompanies every entry in the list below.
tested on: Mitochondrial membrane; test: Induction of mitochondrial membrane potential loss in human MDA-MB-231 cells assessed as green fluorescence at IC50 incubated for 48 hrs MitoTracker Green FM staining based flow cytometry analysis (reference value: 8.86 %); assay type: cell membranes
Write the answer as a number in %, unit excluded.

compound	measurement units	Activity
CCCC[P+](CCCC)(CCCC)CCCCOC(=O)[C@H](CC)[C@H]1CC[C@H](C)[C@H]([C@@H](C)[C@H](O)[C@H](C)C(=O)[C@H](CC)[C@H]2O[C@]3(C=C[C@@H](O)[C@]4(CC[C@@](C)([C@H]5CC[C@](O)(CC)[C@H](C)O5)O4)O3)[C@H](C)C[C@@H]2C)O1.[Br-]	%	70.7
CC[C@@H](C(=O)[C@@H](C)[C@@H](O)[C@H](C)[C@@H]1O[C@@H]([C@@H](CC)C(=O)OCc2ccccc2)CC[C@@H]1C)[C@H]1O[C@]2(C=C[C@@H](O)[C@]3(CC[C@@](C)([C@H]4CC[C@](O)(CC)[C@H](C)O4)O3)O2)[C@H](C)C[C@@H]1C	%	19.6

Inquiry: State Activity on Mitochondrial membrane. Entry: CC[C@@H](C(=O)[C@@H](C)[C@@H](O)[C@H](C)[C@@H]1O[C@@H]([C@@H](CC)C(=O)O)CC[C@@H]1C)[C@H]1O[C@]2(C=C[C@@H](O)[C@]3(CC[C@@](C)([C@H]4CC[C@](O)(CC)[C@H](C)O4)O3)O2)[C@H](C)C[C@@H]1C [SALINOMYCIN]
Reply text: 23.4

Inquiry: // fetch Activity for N#CC(C#N)=NNc1cccc(Cl)c1 ; system: Mitochondrial membrane
Reply text: 87.8

Inquiry: Please look at CC[C@@H](C(=O)[C@@H](C)[C@@H](O)[C@H](C)[C@@H]1O[C@@H]([C@@H](CC)C(=O)OCCCC[P+](c2ccccc2)(c2ccccc2)c2ccccc2)CC[C@@H]1C)[C@H]1O[C@]2(C=C[C@@H](O)[C@]3(CC[C@@](C)([C@H]4CC[C@](O)(CC)[C@H](C)O4)O3)O2)[C@H](C)C[C@@H]1C.[Br-] and tell me its recorded Activity on Mitochondrial membrane.
Reply text: 60.8

###

tested on: Staphylococcus aureus; test: Antimicrobial activity against Staphylococcus aureus NCTC 4163 incubated for 18 hrs by twofold microdilution method; assay type: functional
Form field: MIC (one value per entry).
Give the value, in units of µg/mL, as a plain number.

compound	measurement units	assay value
CCCC[P+](CCCC)(CCCC)CCCCOC(=O)[C@H](CC)[C@H]1CC[C@H](C)[C@H]([C@@H](C)[C@H](O)[C@H](C)C(=O)[C@H](CC)[C@H]2O[C@]3(C=C[C@@H](O)[C@]4(CC[C@@](C)([C@H]5CC[C@](O)(CC)[C@H](C)O5)O4)O3)[C@H](C)C[C@@H]2C)O1.[Br-]	µg/mL	2
CC[C@@H](C(=O)[C@@H](C)[C@@H](O)[C@H](C)[C@@H]1O[C@@H]([C@@H](CC)C(=O)OCCCC[P+](c2ccccc2)(c2ccccc2)c2ccccc2)CC[C@@H]1C)[C@H]1O[C@]2(C=C[C@@H](O)[C@]3(CC[C@@](C)([C@H]4CC[C@](O)(CC)[C@H](C)O4)O3)O2)[C@H](C)C[C@@H]1C.[Br-]	µg/mL	2
CC[C@@H](C(=O)[C@@H](C)[C@@H](O)[C@H](C)[C@@H]1O[C@@H]([C@@H](CC)C(=O)OCCCCCC[P+](c2ccccc2)(c2ccccc2)c2ccc(N(C)C)cc2)CC[C@@H]1C)[C@H]1O[C@]2(C=C[C@@H](O)[C@]3(CC[C@@](C)([C@H]4CC[C@](O)(CC)[C@H](C)O4)O3)O2)[C@H](C)C[C@@H]1C.[Br-]	µg/mL	8
CC[C@@H](C(=O)[C@@H](C)[C@@H](O)[C@H](C)[C@@H]1O[C@@H]([C@@H](CC)C(=O)O)CC[C@@H]1C)[C@H]1O[C@]2(C=C[C@@H](O)[C@]3(CC[C@@](C)([C@H]4CC[C@](O)(CC)[C@H](C)O4)O3)O2)[C@H](C)C[C@@H]1C [SALINOMYCIN]	µg/mL	0.5

As a next step, examine the compound that follows.
Inquiry: Tell me MIC reported for CC[C@@H](C(=O)[C@@H](C)[C@@H](O)[C@H](C)[C@@H]1O[C@@H]([C@@H](CC)C(=O)OCCCC[P+](c2ccc(C)cc2)(c2ccc(C)cc2)c2ccc(C)cc2)CC[C@@H]1C)[C@H]1O[C@]2(C=C[C@@H](O)[C@]3(CC[C@@](C)([C@H]4CC[C@](O)(CC)[C@H](C)O4)O3)O2)[C@H](C)C[C@@H]1C.[Br-]
Reply text: 2
